// reported % inhibition, FRET short substrate assay (negative = activation) for each item listed
target: human BACE1 ECD (human, UniProt P56817); assay: cell-based or functional assay; further: test concentration or dose not given here
Sequence (P56817 22-457): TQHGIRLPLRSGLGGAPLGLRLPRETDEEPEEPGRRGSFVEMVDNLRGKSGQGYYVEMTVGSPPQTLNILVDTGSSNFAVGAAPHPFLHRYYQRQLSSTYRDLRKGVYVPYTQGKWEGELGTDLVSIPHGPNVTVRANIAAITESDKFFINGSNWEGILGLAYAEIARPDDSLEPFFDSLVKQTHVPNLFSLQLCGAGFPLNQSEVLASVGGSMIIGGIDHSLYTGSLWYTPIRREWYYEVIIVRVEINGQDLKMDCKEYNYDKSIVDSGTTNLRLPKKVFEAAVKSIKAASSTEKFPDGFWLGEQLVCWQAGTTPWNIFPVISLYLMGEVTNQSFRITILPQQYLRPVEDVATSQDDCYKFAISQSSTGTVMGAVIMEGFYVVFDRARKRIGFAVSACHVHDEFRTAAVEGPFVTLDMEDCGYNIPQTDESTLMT
Give just the number in %; leave the unit off.

Worked examples, 2 binders total:
5880 (antibody, V domains shown) VH: EVQLLESGGGLVQPGGSLRLSCAASGFTFGSYAMTWVRQAPGKGLEWVSAISGSGISTPYADSVKGRFTISRDNSKNTLYLQMNSLRAEDTAVYYCAKGAGHGSYVKGWFDPWGQGTLVTVSS VL: EIVLTQSPATLSLSPGERATLSCRASQSVSSYLAWYQQKPGQAPRLLIYDASNRATGIPARFSGSGSGTDFTLTISSLEPEDFAVYYCQQSVNFPFTFGGGTKVEIK :: 99
5572 (antibody, V domains shown) VH: QVQLVQSGAEVKKPGSSVKVSCKASGGTFSSYAISWVRQAPGQGLEWMGSIIPIFGTANYAQKFQGRVTITADESTSTAYMELSSLRSEDTAVYYCARSGGTKYGMLDVWGQGTMVTVSS VL: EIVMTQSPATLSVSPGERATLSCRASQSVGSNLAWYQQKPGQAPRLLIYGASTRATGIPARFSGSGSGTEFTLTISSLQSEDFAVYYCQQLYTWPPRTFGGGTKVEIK :: 75

Here is another binder to look at.
Task item: Assign % inhibition, FRET short substrate assay (negative = activation) to the following record: 5893 (antibody, V domains shown) VH: QVQLVQSGAEVKKPGSSVKVSCKASGGTFRGYAISWVRQAPGQGLEWMGNIIPGFGTANYAQKFQGRVTITADESTSTAYMELSSLRSEDTAVYYCARSGGTKYGMLDVWGQGTMVTVSS VL: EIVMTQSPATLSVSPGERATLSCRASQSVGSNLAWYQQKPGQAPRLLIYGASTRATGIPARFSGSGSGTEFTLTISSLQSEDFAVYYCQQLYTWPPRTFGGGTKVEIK
Reply: 72
